target: bradykinin 1 receptor (B1R) of the rat (Rattus norvegicus); construct: expressed in transfected cells; host or cells: CHO K1 cells; assay: Functional investigation on the rat bradykinin 1 receptor (B1R), Ca2+ FLIPR assay in CHO K1 rB1R cells; type: cell-based; conditions: CHO-K1, B1R antagonism rat; test substance 10 μM; Ca2+ FLIPR, CHO K1 rB1R cells; read-out: B1R Ant. r [10 μM] % Inhibition
Sequence (P97583 whole entry): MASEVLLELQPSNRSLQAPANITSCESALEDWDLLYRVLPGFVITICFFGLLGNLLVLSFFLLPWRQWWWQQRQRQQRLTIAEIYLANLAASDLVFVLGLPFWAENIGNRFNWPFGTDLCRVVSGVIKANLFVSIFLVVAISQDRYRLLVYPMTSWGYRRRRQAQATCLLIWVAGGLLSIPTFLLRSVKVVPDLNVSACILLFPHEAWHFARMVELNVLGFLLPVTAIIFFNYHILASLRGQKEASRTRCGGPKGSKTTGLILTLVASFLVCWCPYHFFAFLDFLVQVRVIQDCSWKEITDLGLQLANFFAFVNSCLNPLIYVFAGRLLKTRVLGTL
Assign class by inhibition at 10 µM: not lower than 40% means Condition met; lower than 40% means Condition not met.

Worked examples, 3 compounds total:
Asked: Say whether CN(CCOCC(=O)NC1CCC(C(c2ccccc2)N2CCOCC2)CC1)S(=O)(=O)c1c(Cl)cccc1Cl (centres unmarked) [Example 683] shows inhibition at 10 µM of 40% or more.
Given back: Condition met

Asked: Say whether CN(C)C(c1cccc(F)c1)C1CCC(CCNC(=O)COCCN(C)S(=O)(=O)c2c(Cl)cc(Cl)cc2Cl)CC1 (centres unmarked) [Example 174] shows inhibition at 10 µM of 40% or more.
Given back: Condition met

Asked: Say whether CN(CCOCC(=O)NC1CCC(C(c2ccccc2)N2CCCC2)CC1)S(=O)(=O)c1c(Cl)cc(Cl)cc1Cl (centres unmarked) [Example 606] shows inhibition at 10 µM of 40% or more.
Given back: Condition not met

---
Asked: Say whether CN(CCOCC(=O)NCC1CCC(C(CCc2ccccc2)N2CCCC2)CC1)S(=O)(=O)c1c(Cl)cc(C(F)(F)F)cc1Cl (centres unmarked) [Example 746] shows inhibition at 10 µM of 40% or more.
Given back: Condition met

Asked: Say whether COc1ccc(S(=O)(=O)N2CCCC2COCC(=O)NC2CCC(C(c3ccccc3)N(C)C)CC2)cc1 (centres unmarked) [Example 182] shows inhibition at 10 µM of 40% or more.
Given back: Condition not met

Asked: Say whether CCN(CCOCC(=O)NCCC1CCC(C(c2cccs2)N(C)C)CC1)S(=O)(=O)c1c(C)cc(OC)c(C)c1C (centres unmarked) [Example 103] shows inhibition at 10 µM of 40% or more.
Given back: Condition met

Asked: Say whether CN(CCOCC(=O)NC1CCC(C(CCc2ccccc2)N2CCCCC2)CC1)S(=O)(=O)c1c(Cl)cc(C(F)(F)F)cc1Cl (centres unmarked) [Example 671] shows inhibition at 10 µM of 40% or more.
Given back: Condition not met

Asked: Say whether CN(C)C(c1cccc(F)c1)C1CCC(CCNC(=O)COCCN(C)S(=O)(=O)c2cccc(C(F)(F)F)c2)CC1 (centres unmarked) [Example 192] shows inhibition at 10 µM of 40% or more.
Given back: Condition not met

Asked: Say whether CN(C)C(c1ccccc1)C1CCC(NC(=O)COCCN(C)S(=O)(=O)c2c(F)c(F)c(F)c(F)c2F)CC1 (centres unmarked) [Example 136] shows inhibition at 10 µM of 40% or more.
Given back: Condition not met

---

biological target: serotonin (5-HT) reuptake (Rattus norvegicus, UniProt P31652); construct: synaptosomes are freshly isolated from areas of the rat brain; from tissue; host or cells: rat brain synaptosomes (P2 fraction); assay: Inhibition of serotonin (5HT) reuptake in synaptosomes from rat brain; format: biochemical; settings: test concentration of 10 μM
Sequence (P31652 whole entry): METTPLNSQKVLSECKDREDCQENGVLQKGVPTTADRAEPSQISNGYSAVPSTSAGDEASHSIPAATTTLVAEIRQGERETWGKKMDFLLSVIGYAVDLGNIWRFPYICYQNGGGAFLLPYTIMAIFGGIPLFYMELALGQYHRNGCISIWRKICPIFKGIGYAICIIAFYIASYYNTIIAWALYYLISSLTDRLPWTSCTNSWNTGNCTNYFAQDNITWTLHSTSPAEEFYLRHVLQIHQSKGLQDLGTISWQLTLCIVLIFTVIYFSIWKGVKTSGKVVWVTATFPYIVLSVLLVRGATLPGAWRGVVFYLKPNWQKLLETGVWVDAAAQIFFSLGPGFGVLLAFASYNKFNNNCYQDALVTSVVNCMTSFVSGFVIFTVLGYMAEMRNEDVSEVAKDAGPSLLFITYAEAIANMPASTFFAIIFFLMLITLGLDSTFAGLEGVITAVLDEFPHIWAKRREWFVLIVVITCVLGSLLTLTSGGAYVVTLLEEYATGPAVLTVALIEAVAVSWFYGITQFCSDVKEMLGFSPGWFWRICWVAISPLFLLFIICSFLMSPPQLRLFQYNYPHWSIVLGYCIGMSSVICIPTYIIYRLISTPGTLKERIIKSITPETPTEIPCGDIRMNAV
measured_property: 5-HT (inhibition of reuptake of serotonin, % inhibition) (%)
Give just the numeric value; % need not be written.

Below: 3 compounds and their reported 5-HT (inhibition of reuptake of serotonin, % inhibition).
Asked: // lookup 5-HT (inhibition of reuptake of serotonin, % inhibition) for CN(C)C(c1ccc(Cl)cc1)C1CCC(CCNC(=O)COC2CCCCC2N(C)S(=O)(=O)c2ccc(Cl)c(Cl)c2)CC1 (stereo not shown) [Example 410]
Given back: 78

Asked: // lookup 5-HT (inhibition of reuptake of serotonin, % inhibition) for Cc1ccc(S(=O)(=O)N(C)CCOCC(=O)NCC2CCC(C(CCc3ccccc3)N(C)C)CC2)cc1 (stereo not shown) [Example 452]
Given back: 88

Asked: // lookup 5-HT (inhibition of reuptake of serotonin, % inhibition) for COc1ccc(S(=O)(=O)N(C)CCOCC(=O)NCCC2CCC(C(c3ccc(Cl)cc3)N(C)C)CC2)cc1OC (stereo not shown) [Example 339]
Given back: 78

Now for a further compound.
Asked: // lookup 5-HT (inhibition of reuptake of serotonin, % inhibition) for COc1cc(C)c(S(=O)(=O)N(CCOCC(=O)NCCC2CCC(C(c3ccc(F)cc3)N(C)C)CC2)Cc2ccccc2)c(C)c1 (stereo not shown) [Example 547]
Given back: 90

---

Target: human bradykinin 1 receptor (B1R) (Homo sapiens)
Construct: expressed in transfected cells; host or cells: CHO K1 cells
Sequence (P46663 whole entry): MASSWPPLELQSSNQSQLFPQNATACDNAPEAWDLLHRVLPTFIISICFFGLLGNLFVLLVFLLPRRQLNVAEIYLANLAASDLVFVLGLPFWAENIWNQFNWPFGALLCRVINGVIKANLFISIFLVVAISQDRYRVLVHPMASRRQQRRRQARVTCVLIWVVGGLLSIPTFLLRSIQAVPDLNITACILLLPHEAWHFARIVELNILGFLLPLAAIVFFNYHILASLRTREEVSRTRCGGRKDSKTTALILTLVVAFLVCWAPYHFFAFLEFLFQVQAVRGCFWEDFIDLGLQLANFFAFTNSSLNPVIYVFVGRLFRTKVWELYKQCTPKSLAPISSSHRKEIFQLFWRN
Test: Functional investigation on the human bradykinin 1 receptor (B1R), Ca2+ FLIPR assay in CHO K1 hB1R cells
Assay type: cell-based
Conditions: CHO-K1, B1R antagonism human; test substance 10 μM; Ca2+ FLIPR, CHO K1 hB1R cells; read-out: B1R Ant. h [10 μM] % Inhibition
Excerpt: Functional Investigation on the Human Bradykinin 1 Receptor (B1R) The agonistic or antagonistic action of substances can be determined on the bradykinin 1 receptor (B1R) of the human species and rats with the following assay. In accordance with this assay, the Ca^2+ inflow through the channel is quantified with the aid of a Ca^2=-sensitive dyestuff (type Fluo-4, Molecular Probes Europe BV, Leiden, Holland) in a fluorescent imaging plate reader (FLIPR, Molecular Devices, Sunnyvale, USA). […]
measured_property: inhibition at 10 µM (%)
Give just the numeric value; % need not be written.

Below: 2 compounds and their reported inhibition at 10 µM.
Asked: API: value(readout= inhibition at 10 µM, system= human bradykinin 1 receptor (B1R) (Homo sapiens), query= CN(C)C(c1cccs1)C1CCC(CNC(=O)COCCN(C)S(=O)(=O)c2ccc(OC(F)(F)F)cc2)CC1 (stereo not drawn) [Example 93] )
Given back: -2

Asked: API: value(readout= inhibition at 10 µM, system= human bradykinin 1 receptor (B1R) (Homo sapiens), query= COc1cc(C)c(S(=O)(=O)N(C)CCOCC(=O)NC2CCC(C(c3ccccc3)N3CCOCC3)CC2)c(C)c1C (stereo not drawn) [Example 619] )
Given back: 56

---
Asked: API: value(readout= inhibition at 10 µM, system= human bradykinin 1 receptor (B1R) (Homo sapiens), query= COc1ccc(S(=O)(=O)N2Cc3ccccc3CC2COCC(=O)NCC2CCC(C(c3cccc(F)c3)N(C)C)CC2)cc1 (stereo not drawn) [Example 163] )
Given back: 40

Asked: API: value(readout= inhibition at 10 µM, system= human bradykinin 1 receptor (B1R) (Homo sapiens), query= COc1ccc(S(=O)(=O)N2CCCCC2CCOCC(=O)NC2CCC(C(c3cccs3)N(C)C)CC2)cc1 (stereo not drawn) [Example 6] )
Given back: 24

Asked: API: value(readout= inhibition at 10 µM, system= human bradykinin 1 receptor (B1R) (Homo sapiens), query= CN(C)C(c1cccs1)C1CCC(CCNC(=O)COCCN(C)S(=O)(=O)c2ccc(OC(F)(F)F)cc2)CC1 (stereo not drawn) [Example 65] )
Given back: 12

---

target: serotonin (5-HT) reuptake (Rattus norvegicus); construct: synaptosomes are freshly isolated from areas of the rat brain; from tissue; host or cells: rat brain synaptosomes (P2 fraction); experiment: Inhibition of serotonin (5HT) reuptake in synaptosomes from rat brain; type: biochemical; details: test concentration of 10 μM
measured_property: 5-HT (inhibition of reuptake of serotonin, % inhibition) (%)
Give just the numeric value; % need not be written.

Below: 4 molecules and their reported 5-HT (inhibition of reuptake of serotonin, % inhibition).
Asked: // lookup 5-HT (inhibition of reuptake of serotonin, % inhibition) for CN(C)C(CCc1ccccc1)C1CCC(NC(=O)COc2ccc(Cl)cc2)CC1 (stereo not shown)
Given back: 47

Asked: // lookup 5-HT (inhibition of reuptake of serotonin, % inhibition) for Cc1ccc(S(=O)(=O)N(C)CCOCC(=O)NCC2CCC(C(c3ccc(F)cc3)N(C)C)CC2)cc1 (stereo not shown)
Given back: 105

Asked: // lookup 5-HT (inhibition of reuptake of serotonin, % inhibition) for COc1cc(C)c(S(=O)(=O)N(CCOCC(=O)NC2CCC(C(c3ccc(F)cc3)N(C)C)CC2)Cc2ccccc2)c(C)c1 (stereo not shown)
Given back: 89

Asked: // lookup 5-HT (inhibition of reuptake of serotonin, % inhibition) for Cc1ccc(S(=O)(=O)N(C)CCOCC(=O)NC2CCC(C(c3ccc(F)cc3)N(C)C)CC2)cc1 (stereo not shown)
Given back: 94

---
Asked: // lookup 5-HT (inhibition of reuptake of serotonin, % inhibition) for CN(C)C(c1cccc(F)c1)C1CCC(NC(=O)COCCN(C)S(=O)(=O)c2c(Cl)cc(Cl)cc2Cl)CC1 (stereo not shown)
Given back: 93

Asked: // lookup 5-HT (inhibition of reuptake of serotonin, % inhibition) for CN(C)C(c1cccs1)C1CCC(CCNC(=O)COC2CCCCC2N(C)S(=O)(=O)c2ccc(Cl)c(Cl)c2)CC1 (stereo not shown)
Given back: 83

Asked: // lookup 5-HT (inhibition of reuptake of serotonin, % inhibition) for CN(C)C(c1cccc(F)c1)C1CCC(CCNC(=O)COC2CCN(S(=O)(=O)c3ccc(F)cc3)C2)CC1 (stereo not shown)
Given back: 95

Asked: // lookup 5-HT (inhibition of reuptake of serotonin, % inhibition) for CN(C)C(c1ccc(Cl)cc1)C1CCC(CNC(=O)COC2CCN(S(=O)(=O)c3ccccc3)CC2)CC1 (stereo not shown)
Given back: 94

Asked: // lookup 5-HT (inhibition of reuptake of serotonin, % inhibition) for CN(C)C(c1ccc(F)cc1)C1CCC(CCNC(=O)COC2CCCN(S(=O)(=O)c3ccccc3)C2)CC1 (stereo not shown)
Given back: 97

// provenance: patent US8106055B2
